Reported IC50 is given for each of the following compounds.
molecular target: hTLR8 (Homo sapiens, UniProt Q9NR97); construct: host or cells: HEK293 cells stably transfected with hTLR8; test: HEK-293 hTLR8 transfectant antagonist assay (NF-κB driven SEAP reporter); type: cell-based; conditions: IC50, nM, vs. 3M002 10 μM, hTLR8 reporter cells; agonist 3M002 10 μM
Sequence (Q9NR97 27-1041): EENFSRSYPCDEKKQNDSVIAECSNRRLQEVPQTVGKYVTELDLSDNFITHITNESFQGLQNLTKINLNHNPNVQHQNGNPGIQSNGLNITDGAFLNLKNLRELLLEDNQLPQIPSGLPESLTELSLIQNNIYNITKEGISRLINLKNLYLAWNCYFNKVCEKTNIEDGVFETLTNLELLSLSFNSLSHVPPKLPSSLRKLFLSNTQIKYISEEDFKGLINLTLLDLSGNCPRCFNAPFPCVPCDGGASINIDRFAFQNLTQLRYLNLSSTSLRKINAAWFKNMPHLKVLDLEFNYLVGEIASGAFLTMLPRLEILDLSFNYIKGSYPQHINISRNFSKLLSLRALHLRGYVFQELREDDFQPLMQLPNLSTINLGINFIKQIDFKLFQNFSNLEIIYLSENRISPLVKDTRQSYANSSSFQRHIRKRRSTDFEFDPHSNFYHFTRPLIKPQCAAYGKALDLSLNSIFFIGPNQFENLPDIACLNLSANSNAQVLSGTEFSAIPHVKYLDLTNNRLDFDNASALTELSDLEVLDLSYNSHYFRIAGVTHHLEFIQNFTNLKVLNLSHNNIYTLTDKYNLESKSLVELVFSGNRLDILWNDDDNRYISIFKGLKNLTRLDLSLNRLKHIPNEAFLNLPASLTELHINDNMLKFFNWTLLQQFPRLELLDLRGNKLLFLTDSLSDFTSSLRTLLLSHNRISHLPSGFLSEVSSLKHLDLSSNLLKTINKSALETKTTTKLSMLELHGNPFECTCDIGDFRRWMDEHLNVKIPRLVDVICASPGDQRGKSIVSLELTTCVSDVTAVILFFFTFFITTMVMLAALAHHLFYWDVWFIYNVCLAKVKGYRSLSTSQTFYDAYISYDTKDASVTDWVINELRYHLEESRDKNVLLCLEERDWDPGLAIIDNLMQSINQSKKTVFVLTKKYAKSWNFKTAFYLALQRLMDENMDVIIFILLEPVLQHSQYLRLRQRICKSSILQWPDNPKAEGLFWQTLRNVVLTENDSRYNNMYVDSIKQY

Item under review: CCOC(=O)C1=Cc2cc(Oc3ccc(C(=O)N(C)C)cc3)ccc2N=C(N)C1 [Compound 3093] . Reported IC50?
≥ 10000 nM

---

target: hTLR8 (Homo sapiens, UniProt Q9NR97); construct: host or cells: HEK293 cells stably transfected with hTLR8; test: HEK-293 hTLR8 transfectant antagonist assay (NF-κB driven SEAP reporter); assay type: cell-based; settings: IC50, nM, vs. 3M002 10 μM, hTLR8 reporter cells; agonist 3M002 10 μM
endpoint label: IC50

>>> df
                    structure_smiles_string            result
0  CCOC(=O)C1=Cc2cc(-c3ccc(C(=O)N4CCCC4)cc3Cl)ccc2N=C(N)C1         < 1000 nM
1  CCOC(=O)C1=Cc2cc(-c3ccccc3OC)ccc2N=C(N)C1         < 1000 nM
2  CCOC(=O)C1=Cc2cc(-c3cccc(OC)c3)ccc2N=C(N)C1  1000 to 10000 nM

Item under review: CCOC(=O)C1=Cc2cc(-c3ccc(NC(=O)N(C)C)cc3)ccc2N=C(N)C1 . Reported IC50?
1000 to 10000 nM

Item under review: CCOC(=O)C1=Cc2cc(Oc3ccccc3C)ccc2N=C(N)C1 . Reported IC50?
1000 to 10000 nM

Item under review: CCOC(=O)Nc1ccc(-c2ccc3c(c2)C=C(C(=O)OCC)CC(N)=N3)c(Cl)c1 . Reported IC50?
< 1000 nM

Item under review: CCOC(=O)C1=Cc2cc(Nc3ccccc3)ccc2N=C(N)C1 . Reported IC50?
1000 to 10000 nM

Item under review: CCOC(=O)C1=Cc2cc(-c3ccc(N4CCOC4=O)cc3Cl)ccc2N=C(N)C1 . Reported IC50?
< 1000 nM
